TEST NAME: adipocyte viability effects, profiling panel, cell-based, 3T3-L1 adipocytes, calcein-AM fluorescence, 48 h, basal (AID 1163); further: test concentration not given here
MEASUREMENT SETUP: 3T3-L1 adipocytes viability, higher = more signal
REPORTED ENDPOINT: z-score
Answer with a bare number; do not write a unit.

Which z-score reading was recorded for the compound O=C1OCCC=C[C@H]2OC34C=CCN(CCN5CCOCC5)C(=O)[C@H]3N(CCCCCCO)C(=O)[C@@H]4C12 (some centres not stated) ?
-3.63

Quick one: z-score for `COC(=O)c1c(CC[C@@H](CO)NC(=O)N[C@H](Cn2cc(Cc3ccccc3)nn2)C(C)C)oc(C(C)=O)c1C(=O)OC` ?
1.62

Which z-score is listed for CN1C(=O)C2C=CC(C(O)c3ccccc3)N(Nc3ccccc3)C2C1=O (configuration not stated) ?
-0.559

Given `COCCOC(=O)N1C(=O)[C@@]2(c3ccccc31)[C@H](c1ccccc1OCCO)N1[C@H](c3ccccc3)[C@H](c3ccccc3)OC(=O)[C@H]1[C@@H]2C(=O)Nc1nc2ccccc2s1` , state its recorded z-score.
0.0264

// lookup z-score for `CC(C)N1C(=O)c2ccccc2[C@](C)(C(=O)NCc2ccccc2)[C@@H]1c1ccc(CO)cc1`
0.48

GET /values?readout=z-score&item= CN1C2C=C(CCCO)C(C3C(=O)N(C(N)=O)C(=O)C32)C1c1ccc(CN2CCCC2)cc1 (configuration not stated)
-0.543

Item under review: `CCCCc1cn(C[C@H](Cc2ccccc2)NC(=O)N[C@H](CO)CCc2oc(C(C)=O)c(C(=O)OC)c2C(=O)OC)nn1` . Reported z-score?
0.813

* * *

TEST NAME: small-molecule microarray binders of probe aCHRDL2, primary screen, biochemical, biotinylated probe, 635/667 nm fluorescence (AID 1100)
MEASUREMENT SETUP: higher = more signal
For each entry below, report its composite z-score value.
Output: the number by itself.

Find the recorded composite z-score belonging to `C=C(CCCC)/C(=C/C[C@@H](OC(C)=O)c1ccccc1OCCO)c1cnc2ccccc2c1` and report it.
0.12

# input compound: `CCOC(=O)C[C@H]1[C@H](OC(=O)c2ccc(C(=O)c3ccccc3)cc2)[C@@H](NC(=O)c2ccc(-c3ccccc3)cc2)c2cc(OCCCO)ccc2N1C(=O)c1ccccc1` ; wanted: its composite z-score
-0.387

Look up composite z-score: `C=CCOC(=O)[C@H]1[C@@H]2C(=O)O[C@@H](c3ccccc3)[C@@H](c3ccccc3)N2[C@@H](c2ccc(OCCOC(=O)[C@@H]3C[C@@H]4C(=O)N5CCC[C@H]5C(=O)N4[C@@H]3c3cccc(OCCO)c3)cc2)[C@]12C(=O)Nc1ccccc12`
0.0715

I have this compound here, `COC(=O)[C@@]1(Cc2ccc(OC)cc2)[C@H]2c3cc(C(=O)N(C)C)n(Cc4cccc5ccccc45)c3C[C@H]2CN1C(=O)c1ccccc1` , and I need its recorded composite z-score.
0.771

* * *

TARGET: Calmodulin-1 (Homo sapiens)
TEST NAME: calcium-bound CALM1 binders on microarrays, profiling panel, artefact control for SMM control-protein annotation, biochemical, small-molecule microarray, Cy5-labelled CALM1, plus calcium (AID 1112);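 further: score merges spot fluorescence with signal to noise from triplicate slides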
MEASUREMENT SETUP: Cy5-CALM1 binding fluorescence, higher = more signal
Label scheme for composite z-score: lower than 0.2 is rule not met, 0.2 and above is rule met.

API: above_or_equal(metric=composite z-score, cutoff=0.2) for item `CO[C@H]1O[C@H](CO)[C@@H](OC(=O)Nc2ccc(Br)cc2)[C@H](OC(=O)c2cc3ccccc3[nH]2)[C@H]1OC(=O)c1cc2ccccc2[nH]1`
rule not met

Is the recorded value of composite z-score equal to or greater than 0.2 for this compound? `C=CCOC(=O)[C@@H]1[C@H]2C(=O)O[C@H](c3ccccc3)[C@H](c3ccccc3)N2[C@H](c2ccc(OCCOC(=O)[C@@H]3C[C@@H]4C(=O)N[C@@H](Cc5ccccc5)C(=O)N4[C@@H]3c3ccc(O)cc3)cc2)[C@@]12C(=O)Nc1ccc(I)cc12`
rule met

Hi, just wondering whether `COCCOC(=O)N1C(=O)[C@@]2(c3cc(C#Cc4ccc(OC)cc4)ccc31)[C@H](c1ccc(O)cc1)N1[C@H](c3ccccc3)[C@H](c3ccccc3)OC(=O)[C@H]1[C@@H]2C(=O)NC[C@H](O)c1ccccc1` shows composite z-score of 0.2 or higher.
rule not met

Reported composite z-score at or above 0.2? `CN(C)CCCNC(=O)[C@@]1(c2ccc([N+](=O)[O-])cc2)CC(=O)N(C2CCCCC2)[C@@H]1c1ccc(CO)cc1I`
rule not met

Hello, I need to know if O=C1OCC=C[C@H]2OC34C=CCN(c5ccc6ccccc6c5)C(=O)[C@H]3N(CCCCCCO)C(=O)[C@@H]4[C@@H]12 (some centres not stated) has measured composite z-score not below 0.2. Thanks!
rule not met

Hi team, for `O=C1O[C@H](c2ccccc2)[C@H](c2ccccc2)N2[C@H]1[C@@H](C(=O)N1CCN(c3ncccn3)CC1)[C@]1(C(=O)Nc3ccc(C#CC4=CCCCC4)cc31)[C@H]2c1ccc(O)cc1` , is the recorded composite z-score at or above 0.2?
rule met

State whether the measured composite z-score reaches 0.2, counting equality as reaching it, for CC(C)C[C@H]1NC(=O)[C@@]23C(=O)N[C@@H](Cc4ccccc4)C2[C@H](C)[C@@]2(C)O[C@H]2C3/C=C/C/C=C\CNC(=O)[C@H](Cc2ccccc2)NC1=O (some centres not stated)
rule not met

Is the recorded value of composite z-score equal to or greater than 0.2 for this compound? `COC(=O)[C@@]1(Cc2ccc(F)cc2)[C@H]2c3cc(C(=O)N(C)C)n(CC4CC4)c3C[C@H]2CN1C(=O)c1ccccc1`
rule met

Confirm if composite z-score reported for the compound `COC(=O)C(CC#Cc1ccc2c(c1)[C@]1(C(=O)N2)[C@H](c2ccc(O)cc2)N2[C@H](c3ccccc3)[C@H](c3ccccc3)OC(=O)[C@H]2[C@@H]1C(=O)Nc1nc2ccccc2s1)C(=O)OC` is 0.2 or above.
rule met

Answer whether composite z-score of `CCOC(=O)C=Cc1cc([N+](=O)[O-])ccc1O` is greater than or equal to 0.2.
rule not met

Hi, just wondering whether `COC(=O)[C@@]1(Cc2ccc(OC)cc2)[C@H]2c3cc(C(=O)N(C)C)n(CCN4CNCC4=O)c3C[C@H]2CN1C(=O)c1ccccc1` shows composite z-score of 0.2 or higher.
rule met

Quick check, composite z-score >= 0.2? CC1CC/C=C\[C@H]2OC34C=CCN(Cn5nnc6ccccc65)C(=O)[C@H]3N(C(CO)C(C)C)C(=O)[C@@H]4C2C(=O)O1 (some centres not stated)
rule not met

* * *

Please go through the items and note down their composite z-score.
TEST NAME: binders from COS7 lysate, DM2A8 probe, primary screen, torsin A project, cell lysate, small-molecule microarray, fluorescence 635/667 (AID 1065)
MEASUREMENT SETUP: higher = more signal, COS7 lysate expressing mutant human TOR1A

Query (compound): O=C1OCCC/C=C\[C@H]2OC34C=CCN(Cn5nnc6ccccc65)C(=O)[C@H]3N(CCCCCCO)C(=O)[C@@H]4C12 (stereo partly drawn) ; field requested: composite z-score
1.57

Look up composite z-score: `O=C(NCc1ccccc1)[C@@H]1c2ccccc2C(=O)N(CC23CC4CC(CC(C4)C2)C3)[C@H]1c1ccc(CO)cc1`
0.0469

Entry CCOC(=O)[C@H]1CC=C2CC1C(=O)N1CCC[C@@H]1[C@@H]2O[Si](C)(C)C(C)(C)C (stereo partly drawn) has what composite z-score?
-0.0173

Name the recorded composite z-score for CN1C(=O)C2C=CC(C(O)c3cc(C(F)(F)F)cc(C(F)(F)F)c3)N(N3CCCCC3)C2C1=O (stereo not drawn) .
-0.392

Recorded composite z-score of `COc1ccc(C(=O)Nc2ccc(CN3C(=O)[C@@]4(O[C@@H](CCO)[C@H]([Si](C)(C)c5ccc(OC)cc5)[C@H]4C)c4ccccc43)cc2)cc1` , please.
0.623

State the recorded composite z-score for this entry: `O=C1NCC(=O)N2[C@@H]1C[C@@H](C(=O)O)[C@H]2c1cccc(OCCO)c1`
2.65

Look up composite z-score for this compound: CN1C(=O)C2C=CC(C(O)c3ccc(I)cc3)N(N3CCCCC3)C2C1=O (stereo not drawn)
0.235

Endpoint output: composite z-score of `Cc1ccc(S[C@]2(C(=O)NCCN3CCOCC3)CC(=O)N(Cc3ccccc3Cl)[C@@H]2c2ccc(CO)cc2)cc1` . Value?
-0.159

* * *

TARGET: Calmodulin-1 (Homo sapiens)
TEST NAME: CALM1 binders on microarrays, EGTA buffer, profiling panel, biochemical, small-molecule microarray, Cy5-labelled CALM1 (AID 1111);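 further: labelled calmodulin applied in Tris saline Tween buffer holding calcium plus EGTA and DTT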
MEASUREMENT SETUP: Cy5-CALM1 binding fluorescence, higher = more signal
REPORTED ENDPOINT: composite z-score
I'd appreciate a reply containing only the number, no unit.

Report composite z-score for [N-]=[N+]=Nc1ccccc1C[C@]1(C(=O)NCC(O)CO)N=C(c2ccc(OCCCO)cc2)O[C@H]1c1ccccc1N=[N+]=[N-] (stereo partly specified) please.
0.771

Query: composite z-score; subject: `O=C(NCc1ccccc1)[C@@H]1c2ccccc2C(=O)N(CC23CC4CC(CC(C4)C2)C3)[C@H]1c1ccc(CO)cc1`
0.237

Would you kindly share the measured composite z-score for `COc1cc2c(cc1OC)CN(C(=O)[C@H]1[C@@H]3C(=O)O[C@@H](c4ccccc4)[C@@H](c4ccccc4)N3[C@@H](c3ccc(O)cc3)[C@]13C(=O)Nc1ccc(C#CCNC(N)=O)cc13)CC2` ?
-0.123

Data request, read-out composite z-score, for `COc1ccc([Si](C)(C)[C@H]2[C@H](CC(=O)N3CCC[C@H]3CO)O[C@@]3(C(=O)N(Cc4cccc(N5C(=O)c6cccc7cccc5c67)c4)c4ccccc43)[C@@H]2C)cc1`
0.681

Entry `COCCCN1C(=O)[C@@]2(c3ccc([N+](=O)[O-])cc3)CC(=O)N(C3CCCCC3)[C@@H]2c2ccc(CO)cc21` : reported composite z-score = ?
-0.463

Would you mind telling me what composite z-score value was observed for `COCCOC(=O)N1C(=O)[C@@]2(c3ccccc31)[C@H](c1ccc(O)cc1)N1[C@H](c3ccccc3)[C@H](c3ccccc3)OC(=O)[C@H]1[C@@H]2C(=O)NC[C@H](O)c1ccccc1` ?
1.34

Name the reported composite z-score value associated with the compound `[N-]=[N+]=NCc1ccccc1[C@H]1OC(c2ccc(OCCCO)cc2)=N[C@@]1(Cc1ccccc1)C(=O)NCc1ccccc1`
1.45

Name the reported composite z-score value associated with the compound `COCCOC(=O)N1C(=O)[C@@]2(c3cc(C#CCCO)ccc31)[C@H](C(=O)Nc1nc3ccccc3s1)[C@H]1C(=O)O[C@H](c3ccccc3)[C@H](c3ccccc3)N1[C@@H]2c1ccc(OCCO)cc1`
1.08

# query: composite z-score of entry `C=CCNC(=O)[C@H]1[C@@H]2C(=O)O[C@@H](c3ccccc3)[C@@H](c3ccccc3)N2[C@@H](c2ccc(OCCO)cc2)[C@]12C(=O)Nc1ccc(C#CC3=CCCCC3)cc12`
0.508

Tell me the measured composite z-score of `Cc1ccc(S[C@]2(C(=O)NCC(F)(F)F)CC(=O)N(C(C)C)[C@@H]2c2ccc(CO)cc2I)cc1` , please.
-0.0874

Fill in the blank: the reported composite z-score of C=C(C)C1C(=C)CN([C@H](CO)c2ccccc2)C1=O (stereo partly specified) is ____.
-0.911

Entry `CN(C)CCCCCCNC(=O)[C@@H]1C[C@@H]2C(=O)N[C@@H](CCCCN)C(=O)N2[C@@H]1c1cccc(OCCO)c1` has what composite z-score?
2.8

Dear colleague, I am looking for the recorded composite z-score of the following compound: [N-]=[N+]=NCc1ccccc1C[C@@]1(C(=O)NCC(O)CO)N=C(c2ccc(OCCCO)cc2)O[C@@H]1c1ccccc1N=[N+]=[N-] (stereo partly specified)
2.21

Entry `CC(C)C(=C=CC[C@@H](O)c1ccccc1OCCO)CCO` has what composite z-score?
0.084

Data request, read-out composite z-score, for CCCCCN1CC=CC23O[C@@H]4/C=C\CCCOC(=O)C4[C@H]2C(=O)N(C(CO)C(C)C)[C@@H]3C1=O (stereo partly specified)
-0.33

Which value of composite z-score has been reported for `CCCC=C(CCC)[C@@H](NS(=O)(=O)c1cccs1)c1ccc(C(=O)OC)cc1` in the records?
1.6

Please report the recorded composite z-score for `O=C1c2ccccc2[C@@]2(Cc3ccccc3N(CCN3CCOCC3)C2=O)[C@H](c2ccc(CO)cc2)N1Cc1ccccc1` .
-0.211

Looking for the measured composite z-score of `COCCOC(=O)N1C(=O)[C@@]2(c3cc(C#CC4=CCCCC4)ccc31)[C@H](C(=O)Nc1nc3ccccc3s1)[C@H]1C(=O)O[C@H](c3ccccc3)[C@H](c3ccccc3)N1[C@@H]2c1ccc(OCCO)cc1` , can you help?
0.792

Which composite z-score value is on record for `O=C1[C@H]2C=C(Br)[C@H](C[C@@H]2c2ccccc2)[C@@]12CO2` ?
-0.428

Item under review: `CCOC(=O)C[C@H]1[C@H](OC(=O)Cc2ccc3c(c2)OCO3)[C@@H](NC(=O)c2ccc3ccccc3c2)c2cc(OCCCO)ccc2N1C(=O)c1ccccc1` . Reported composite z-score?
0.119

Entry `C=CCN1C(=O)[C@@]2(O[C@@H](CCO)[C@H]([Si](C)(C)c3ccc(OC)cc3)[C@H]2C)c2cc(NC(=O)c3ccc(OC)cc3)ccc21` : reported composite z-score = ?
-0.178

Could you share which composite z-score value was measured for `C[C@@H]1ON(c2cccc(C(=O)OC(C)(C)C)c2)[C@H](c2ccc(Br)cc2)[C@H]1C(=O)N1C(=O)OC[C@H]1Cc1ccccc1` ?
0.702

Request the reported composite z-score associated with `COCCOC(=O)N1C(=O)[C@@]2(c3ccccc31)[C@H](c1ccccc1OCCO)N1[C@H](c3ccccc3)[C@H](c3ccccc3)OC(=O)[C@H]1[C@@H]2C(=O)Nc1nc2ccccc2s1`
1.24

Item O=C1OCCC=C[C@H]2OC34C=CCN(CCN5CCOCC5)C(=O)[C@H]3N(CCCCCCO)C(=O)[C@@H]4C12 (stereo partly specified) has what recorded composite z-score?
-0.304

composite z-score lookup needed for `O=C(c1ccccc1)N1Cc2ccccc2[C@@H]2OC(c3ccc(OCCCO)cc3)=N[C@]2(Cc2ccccc2)C1=O` , thanks.
0.978

Find the recorded composite z-score belonging to `COCCOC(=O)N1C(=O)[C@@]2(c3cc(C#Cc4ccc(OC)cc4)ccc31)[C@H](c1ccccc1OCCO)N1[C@H](c3ccccc3)[C@H](c3ccccc3)OC(=O)[C@H]1[C@@H]2C(=O)N1CCN(c2ncccn2)CC1` and report it.
0.694
